Please go through the items and note down their Kd.
Molecular target: T1, cynomolgus IL-18BP (cynomolgus monkey)
T1 construct: also called cyno IL-18BP; cyIL-18BP
T1 chain: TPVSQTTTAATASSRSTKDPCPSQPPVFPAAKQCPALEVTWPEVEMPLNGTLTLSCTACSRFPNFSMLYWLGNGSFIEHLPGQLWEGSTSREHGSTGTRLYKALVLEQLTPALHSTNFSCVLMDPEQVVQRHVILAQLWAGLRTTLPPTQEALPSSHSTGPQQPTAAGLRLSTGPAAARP
Test: BLI, apparent KD
Your answer is read as nM, so omit the unit and give the number.

Challenge: For the binder SA301a HC-N100bS (antibody, name in Kabat numbering, V domains shown, IgG1 kappa) VH: QVQLQESGPGLVKPSQTLSLTCTVSGYSITSDYNSHWIRQPPGKGLEWIGYIHYSGSTNYNPSLKSRVTISRDTSKNQFSLKLSSVTAADTAVYYCARNYGSIYVSYFDYWGQGTLVTVSS VL: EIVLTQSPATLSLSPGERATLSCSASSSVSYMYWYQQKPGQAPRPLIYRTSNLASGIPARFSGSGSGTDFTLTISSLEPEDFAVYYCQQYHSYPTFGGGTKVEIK , give its reported Kd.
Response given: 0.09

Challenge: Query Kd for SA301a HC-N100bD (antibody, name in Kabat numbering, V domains shown, IgG1 kappa) VH: QVQLQESGPGLVKPSQTLSLTCTVSGYSITSDYNSHWIRQPPGKGLEWIGYIHYSGSTNYNPSLKSRVTISRDTSKNQFSLKLSSVTAADTAVYYCARNYGSIYVDYFDYWGQGTLVTVSS VL: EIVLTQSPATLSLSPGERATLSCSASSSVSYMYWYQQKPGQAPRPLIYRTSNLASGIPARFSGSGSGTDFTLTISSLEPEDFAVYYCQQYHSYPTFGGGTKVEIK
Response given: 0.96

Challenge: Given the binder SA301a HC-V100aQ (antibody, name in Kabat numbering, V domains shown, IgG1 kappa) VH: QVQLQESGPGLVKPSQTLSLTCTVSGYSITSDYNSHWIRQPPGKGLEWIGYIHYSGSTNYNPSLKSRVTISRDTSKNQFSLKLSSVTAADTAVYYCARNYGSIYQNYFDYWGQGTLVTVSS VL: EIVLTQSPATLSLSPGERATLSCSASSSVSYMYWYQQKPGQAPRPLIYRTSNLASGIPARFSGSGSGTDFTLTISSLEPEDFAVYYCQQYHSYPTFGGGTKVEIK , write its reported Kd.
Response given: 0.1
